This section presents binders with their documented % unbound [14C] values.
target_or_system: radiolabelled octapeptide repeat peptide *acetyl…amide
Give the quantity in %, number only.

Examples from the recorded data:
Data request: Please look up its % unbound [14C]: SFPYYY (modifications not checked) [peptide 92, SFPYYY, on Toyopearl resin, free amino terminal]
Data returned: 90

Data request: Report % unbound [14C] for QWWFII (modifications not checked) [peptide 114, QWWFII, on Toyopearl resin, free amino terminal] please.
Data returned: 87

Data request: For the binder LEIRLA (modifications not checked) [peptide 93, LEIRLA, on Toyopearl resin, free amino terminal] , what % unbound [14C] is on record?
Data returned: 96

Data request: Query (binder): GFFFWW (modifications not checked) [peptide 89, GFFFWW, on Toyopearl resin, free amino terminal] ; field requested: % unbound [14C]
Data returned: 23

Data request: // lookup % unbound [14C] for WLYWIP (modifications not checked) [peptide 85, WLYWIP, on Toyopearl resin, free amino terminal]
Data returned: 90

Data request: Give the measured % unbound [14C] of FYVFTA (modifications not checked) [peptide 90/98, FYVFTA, on Toyopearl resin, free amino terminal] .
Data returned: 82

Data request: What does the data say about its % unbound [14C]? Entry: YWFIYI (modifications not checked) [peptide 117, YWFIYI, on Toyopearl resin, free amino terminal]
Data returned: 83

Data request: Consider the binder shown here: LRVIIS (modifications not checked) [peptide 96, LRVIIS, on Toyopearl resin, free amino terminal] What is its recorded % unbound [14C]?
Data returned: 90

Next:
Data request: Reported % unbound [14C] for PFHPG (modifications not checked) [peptide 100, PFHPG, on Toyopearl resin, free amino terminal] : what is it?
Data returned: 88

Data request: Name the recorded % unbound [14C] for SNYGPY (modifications not checked) [peptide 99, SNYGPY, on Toyopearl resin, free amino terminal] .
Data returned: 79
